Tested on: Candida albicans
Assay: In vitro antifungal activity against Candida albicans
Type: functional
Conditions: Candida albicans; read-out: MIC
Parameter Measured: MIC

Here are 2 compounds together with their reported answers.
{"Compound": "CCCCCC(O)(Cn1cncn1)C(=O)c1ccc(Cl)cc1 (stereo not given)", "Measurement Target": "Candida albicans", "MIC": "100 µg/mL"}
{"Compound": "CC(O)(c1ccc(F)cc1)C(O)(Cn1cncn1)c1ccc(F)cc1 (stereo in doubt; 161)", "Measurement Target": "Candida albicans", "MIC": "> 100 µg/mL"}

Dear colleague, could you please provide MIC for the compounds listed below?
1. O=S1O[C@H](c2ccccc2)[C@@](Cn2cncn2)(c2ccc(Cl)cc2Cl)O1 (stereo not given in full)
2. CCC(O)(Cn1cncn1)C(=O)c1ccc(Cl)cc1Cl (stereo not given)

Key:
1: > 100 µg/mL; 2: > 100 µg/mL

Exercise: Any idea what its MIC is? The compound is O=C(c1ccc(Cl)cc1)C(O)(Cn1cncn1)C1CCCCC1 (stereo not given)
Key: > 100 µg/mL

* * *

Provide the recorded MIC for the entries that follow.
Tested on: Candida albicans
Test: In vitro antifungal activity against Candida albicans
Assay type: functional
Settings: Candida albicans; read-out: MIC

Here are 5 molecules together with their reported answers.
{"Molecule": "CC(C)[C@H]1OCO[C@@]1(Cn1cncn1)c1ccc(Cl)cc1", "MIC": "> 100 µg/mL"}
{"Molecule": "CC(C)CC(=O)C(O)(Cn1cncn1)c1ccc(Cl)cc1Cl (centres undefined)", "MIC": "100 µg/mL"}
{"Molecule": "O=C(c1ccccc1Cl)C(O)(Cn1cncn1)c1ccc(Cl)cc1Cl (centres undefined)", "MIC": "> 100 µg/mL"}
{"Molecule": "CCCCC(O)(Cn1cncn1)C(=O)c1ccc(Cl)cc1 (centres undefined)", "MIC": "100 µg/mL"}
{"Molecule": "Clc1ccc([C@@]2(Cn3cncn3)OC3(CCCCC3)O[C@@H]2c2ccc(Cl)cc2Cl)cc1", "MIC": "> 100 µg/mL"}

Dear colleague, could you please provide MIC for the molecules listed below?
1. O=C(c1ccc(Cl)cc1Cl)C(O)(Cn1cncn1)c1ccc(Cl)cc1 (centres undefined)
2. CC(O)(c1ccc(F)cc1)C(O)(Cn1cncn1)c1ccc(Cl)cc1 (stereo in doubt; 163)
3. O=S1O[C@H](c2ccc(F)cc2)[C@](Cn2cncn2)(c2ccc(Cl)cc2Cl)O1 (some centres undefined)
4. CCCC(O)(c1ccc(F)cc1)C(O)(Cn1cncn1)c1ccc(Cl)cc1 (centres undefined)

Key:
100 µg/mL
100 µg/mL
> 100 µg/mL
> 100 µg/mL

* * *

Test system: Aspergillus fumigatus
Assay: In vitro antifungal activity against Aspergillus fumigatus
Format: functional
Conditions: Aspergillus fumigatus; read-out: MIC
Parameter Measured: MIC

Here are 5 compounds together with their reported answers.
{"Compound": "O=C(c1cccs1)C(O)(Cn1ccnc1)c1ccc(Cl)cc1 (stereo unspecified)", "Measurement Target": "Aspergillus fumigatus", "Parameter Measured": "MIC", "Recorded Result": "> 100 µg/mL"}
{"Compound": "CC(C)CC(=O)C(O)(Cn1cncn1)c1ccc(Cl)cc1Cl (stereo unspecified)", "Measurement Target": "Aspergillus fumigatus", "Parameter Measured": "MIC", "Recorded Result": "100 µg/mL"}
{"Compound": "CCCC(=O)C(O)(Cn1cncn1)c1ccc(Cl)cc1Cl (stereo unspecified)", "Measurement Target": "Aspergillus fumigatus", "Parameter Measured": "MIC", "Recorded Result": "50 µg/mL"}
{"Compound": "O=C(c1ccc(Cl)cc1)C(O)(Cn1cncn1)c1ccc(Cl)cc1 (stereo unspecified)", "Measurement Target": "Aspergillus fumigatus", "Parameter Measured": "MIC", "Recorded Result": "> 100 µg/mL"}
{"Compound": "O=C1O[C@H](c2ccc(F)cc2)[C@@](Cn2ccnc2)(c2ccc(Cl)cc2Cl)O1", "Measurement Target": "Aspergillus fumigatus", "Parameter Measured": "MIC", "Recorded Result": "50 µg/mL"}

Next up:
Exercise: Any idea what its MIC is? The compound is O=S1O[C@H](c2ccccc2)[C@@](Cn2cncn2)(c2ccc(Cl)cc2Cl)O1 (stereo partly specified)
Key: 50 µg/mL

* * *

System: Candida albicans
Experiment: In vitro antifungal activity against Candida albicans
Format: functional
Conditions: Candida albicans; read-out: MIC
Parameter Measured: MIC

Here are 4 compounds together with their reported answers.
{"Compound": "O=C(c1ccc(Cl)cc1Cl)C(O)(Cn1cncn1)c1ccc(Cl)cc1Cl (configuration not stated)", "MIC": "50 µg/mL"}
{"Compound": "CCCC(=O)C(O)(Cn1cncn1)c1ccccc1Cl (configuration not stated)", "MIC": "> 100 µg/mL"}
{"Compound": "Cc1ccc([C@H]2OC(=O)O[C@]2(Cn2cncn2)c2ccc(C)cc2)cc1", "MIC": "> 100 µg/mL"}
{"Compound": "O=C(c1ccc(Cl)cc1)C(O)(Cn1ccnc1)c1ccc(Cl)cc1Cl (configuration not stated)", "MIC": "> 100 µg/mL"}

Dear colleague, could you please provide MIC for the compounds listed below?
1. CC(O)(c1ccccc1)C(O)(Cn1cncn1)c1ccc(Cl)cc1Cl (stereo in doubt; 166)
2. CCCCC(=O)C(O)(Cn1cncn1)c1ccc(Cl)cc1Cl (configuration not stated)
3. O=C1O[C@H](c2ccc(F)cc2)[C@@](Cn2ccnc2)(c2ccc(Cl)cc2Cl)O1
4. O=C(c1cccc(Cl)c1)C(O)(Cn1cncn1)c1cccc(Cl)c1 (configuration not stated)
5. CC(C)CC(=O)C(O)(Cn1cncn1)c1ccc(Cl)cc1 (configuration not stated)
6. O=C(c1ccc(Cl)cc1Cl)C(O)(Cn1ccnc1)c1ccc(Cl)cc1Cl (configuration not stated)
7. OC(c1ccc(Cl)cc1)C(O)(Cn1cncn1)c1ccc(Cl)cc1Cl (stereo in doubt; 108)
8. O=C(c1ccc(Cl)cc1Cl)C(O)(Cn1cnnc1)c1ccc(Cl)cc1 (configuration not stated)

Key:
["> 100 µg/mL", "50 µg/mL", "100 µg/mL", "> 100 µg/mL", "100 µg/mL", "50 µg/mL", "> 100 µg/mL", "> 100 µg/mL"]

* * *

Tested on: Candida albicans
Experiment: In vitro antifungal activity against Candida albicans
Assay type: functional
Parameter Measured: MIC

Here are 3 compounds together with their reported answers.
{"Compound": "CC(O)(c1ccc(F)cc1)C(O)(Cn1cncn1)c1ccc(Cl)cc1 (stereo in doubt; 162)", "Measurement Target": "Candida albicans", "MIC": ">100 µg/mL"}
{"Compound": "OC(c1ccc(F)cc1)C(O)(Cn1cncn1)c1ccc(Cl)cc1 (stereo in doubt; 104)", "Measurement Target": "Candida albicans", "MIC": "50 µg/mL"}
{"Compound": "OC(c1ccc(F)cc1)C(O)(Cn1cncn1)c1ccc(Cl)cc1Cl (stereo in doubt; 105)", "Measurement Target": "Candida albicans", "MIC": ">100 µg/mL"}

Dear colleague, could you please provide MIC for the compounds listed below?
1. CC(C)C(=O)C(O)(Cn1cncn1)c1ccc(Cl)cc1 (stereo in doubt; 13)
2. CC(O)(c1ccc(F)cc1)C(O)(Cn1cncn1)c1ccc(Cl)cc1Cl (stereo in doubt; 174)
3. CC(O)(c1ccc(Cl)cc1)C(O)(Cn1cncn1)c1ccc(Cl)cc1Cl (stereo in doubt; 176)

Key:
>100 µg/mL
100 µg/mL
50 µg/mL

* * *

System: Aspergillus fumigatus
Assay: In vitro antifungal activity against Aspergillus fumigatus
Format: functional
Conditions: Aspergillus fumigatus; read-out: MIC
Provide the recorded MIC for the entries that follow.
Numbers only, in µg/mL.

Here are 2 compounds together with their reported answers.
{"Compound": "O=C(c1ccc(Cl)cc1)C(O)(Cn1cncn1)C1CCCCC1 (stereo not given)", "MIC (µg/mL)": 50}
{"Compound": "CC(C)C(C)(O)C(O)(Cn1cncn1)c1ccc(Cl)cc1Cl (stereo in doubt; 169)", "MIC (µg/mL)": 50}

Next up:
Exercise: Any idea what its MIC is? The compound is O=C(c1ccc(Cl)cc1Cl)C(O)(Cn1cncn1)c1ccccc1Cl (stereo not given)
Key: 100

* * *

Provide the recorded MIC for the entries that follow.
Test system: Aspergillus fumigatus
Test: In vitro antifungal activity against Aspergillus fumigatus
Assay type: functional
Conditions: Aspergillus fumigatus; read-out: MIC

Dear colleague, could you please provide MIC for the molecules listed below?
1. O=C1O[C@H](c2ccccc2)[C@@](Cn2cncn2)(c2ccc(Cl)cc2Cl)O1
2. CC(C)(O)C(O)(Cn1cncn1)c1ccccc1 (configuration not stated)

Key:
1. > 100 µg/mL
2. > 100 µg/mL

* * *

Tested on: Candida albicans
Assay: In vitro antifungal activity against Candida albicans
Type: functional
Conditions: Candida albicans; read-out: MIC
Parameter Measured: MIC

Here are 2 compounds together with their reported answers.
{"Compound": "O=C(c1ccccc1)C(O)(Cn1cncn1)c1ccccc1Cl (stereo not drawn)", "Measurement Target": "Candida albicans", "Parameter Measured": "MIC", "Recorded Result": "> 100 µg/mL"}
{"Compound": "O=C(c1ccc(Cl)cc1Cl)C(O)(Cn1cnnc1)c1ccc(Cl)cc1Cl (stereo not drawn)", "Measurement Target": "Candida albicans", "Parameter Measured": "MIC", "Recorded Result": "> 100 µg/mL"}

Next up:
Exercise: Any idea what its MIC is? The compound is O=C(c1ccc(Cl)cc1Cl)C(O)(Cc1ccccc1)Cn1cncn1 (stereo not drawn)
Key: > 100 µg/mL
